Test system: MV-4-11 (Acute Myeloid Leukemia);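 note: after 72 h of two-drug dosing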
MEASUREMENT_NOTES: Bliss excess, mean over the matrix (fraction); higher = more synergy
Entries and their Bliss excess

[[record]]
compound = "COc1nnc2ccc(N3CCC(c4ccc(OCCN5CCN(C)C(=O)[C@H]5C)cc4)CC3)nn12 [AZD5153] + Cn1cnc2c(F)c(Nc3ccc(Br)cc3Cl)c(C(=O)NOCCO)cc21 [Selumetinib] (first compound max 1 µM, 7x7, partner max 10 µM)"
result = 0.0309

[[record]]
compound = "CC1(C)CCC(CN2CCN(c3ccc(C(=O)NS(=O)(=O)c4ccc(NCC5CCOCC5)c([N+](=O)[O-])c4)c(Oc4cnc5[nH]ccc5c4)c3)CC2)=C(c2ccc(Cl)cc2)C1 [Venetoclax] + Cn1cnc2c(F)c(Nc3ccc(Br)cc3Cl)c(C(=O)NOCCO)cc21 [Selumetinib] (first compound max 1 µM, 7x7, partner max 3 µM)"
result = -0.0022

[[record]]
compound = "COc1cccc(OCCCN)c1-c1cc(Nc2cnc(C#N)cn2)n[nH]1 [Prexasertib] + CN(C)CCCOc1ccc(-c2ccc3ncc4c(c3c2)n(C2CCOCC2)c(=O)n4C)cn1 [AZD0156] (first compound max 1 µM, 7x7, partner max 1 µM)"
result = -0.0249


**Query** Recorded Bliss excess for COc1nnc2ccc(N3CCC(c4ccc(OCCN5CCN(C)C(=O)[C@H]5C)cc4)CC3)nn12 [AZD5153] + CC1(C)CCC(CN2CCN(c3ccc(C(=O)NS(=O)(=O)c4ccc(NCC5CCOCC5)c([N+](=O)[O-])c4)c(Oc4cnc5[nH]ccc5c4)c3)CC2)=C(c2ccc(Cl)cc2)C1 [Venetoclax] (first compound max 1 µM, 7x7, partner max 1 µM) with MV-4-11 (Acute Myeloid Leukemia), please?
**Result** 0.0014

**Query** How about this compound: Cc1c2c(nn1C)CSCc1cc(n(C)n1)CSc1cc(c3ccccc3c1)OCCCc1c(C(=O)O)n(C)c3c-2c(Cl)ccc13 [AZD5991] + CC1(C)CCC(CN2CCN(c3ccc(C(=O)NS(=O)(=O)c4ccc(NCC5CCOCC5)c([N+](=O)[O-])c4)c(Oc4cnc5[nH]ccc5c4)c3)CC2)=C(c2ccc(Cl)cc2)C1 [Venetoclax] (first compound max 1 µM, 7x7, partner max 1 µM)
**Result** 0.0591

**Query** Next up: COc1nnc2ccc(N3CCC(c4ccc(OCCN5CCN(C)C(=O)[C@H]5C)cc4)CC3)nn12 [AZD5153] + C[C@@H]1COCCN1C2=NC(=NC(=C2)C3(CC3)[S@](=N)(=O)C)C4=C5C=CNC5=NC=C4 [AZD6738] (first compound max 1 µM, 7x7, partner max 10 µM)
**Result** 0.0009

**Query** Please answer likewise for COc1nnc2ccc(N3CCC(c4ccc(OCCN5CCN(C)C(=O)[C@H]5C)cc4)CC3)nn12 [AZD5153] + C=CCn1c(=O)c2cnc(Nc3ccc(N4CCN(C)CC4)cc3)nc2n1-c1cccc(C(C)(C)O)n1 [AZD1775] (first compound max 1 µM, partner max 1 µM)
**Result** -0.0114
